# MEASUREMENT TARGET: ARNT PAS-B (aryl hydrocarbon receptor nuclear translocator) (Homo sapiens, UniProt P27540, Y456T)
# Construct: PAS-B domain, residues 356–470 (with N-terminal GAMD cloning artifact)
# Sequence (P27540 356-470 Y456T): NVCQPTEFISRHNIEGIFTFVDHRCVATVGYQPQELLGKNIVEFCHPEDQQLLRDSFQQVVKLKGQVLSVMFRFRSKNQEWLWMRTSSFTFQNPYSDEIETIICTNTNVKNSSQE
# EXPERIMENTAL PROTOCOL: […]/1H HSQC NMR titration ([…]/1H HSQC titration also gave Kd […])
# Format: binding
VALUE TYPE: Kd (µM)
// return numeric value only (unit: µM, not printed)

The recorded Kd for entry FC(F)(F)c1cc(-c2nn[nH]n2)cc(C(F)(F)F)c1 equals 684

---

# MEASUREMENT TARGET: ARNT PAS-B (aryl hydrocarbon receptor nuclear translocator) (Homo sapiens, UniProt P27540, Y456T)
# Construct: PAS-B domain, residues 356–470 (with N-terminal GAMD cloning artifact)
# EXPERIMENTAL PROTOCOL: […]/1H HSQC NMR titration (L391 δ[…] methyl)
# Assay type: binding
VALUE TYPE: pKd
Just the number, please; pKd means minus log10 of the concentration in mol/L.

Form: compound = Oc1cc(C(F)(F)F)cc(C(F)(F)F)c1 [KG-655, 3,5-bis(trifluoromethyl)phenol] ; pKd = 2.71
